- Measured Target: human PAH with the R408W mutation (A375 R408W cells) (Homo sapiens, UniProt P00439, R408W)
- Construct: expressed in transfected cells
- Sequence (P00439 whole entry R408W): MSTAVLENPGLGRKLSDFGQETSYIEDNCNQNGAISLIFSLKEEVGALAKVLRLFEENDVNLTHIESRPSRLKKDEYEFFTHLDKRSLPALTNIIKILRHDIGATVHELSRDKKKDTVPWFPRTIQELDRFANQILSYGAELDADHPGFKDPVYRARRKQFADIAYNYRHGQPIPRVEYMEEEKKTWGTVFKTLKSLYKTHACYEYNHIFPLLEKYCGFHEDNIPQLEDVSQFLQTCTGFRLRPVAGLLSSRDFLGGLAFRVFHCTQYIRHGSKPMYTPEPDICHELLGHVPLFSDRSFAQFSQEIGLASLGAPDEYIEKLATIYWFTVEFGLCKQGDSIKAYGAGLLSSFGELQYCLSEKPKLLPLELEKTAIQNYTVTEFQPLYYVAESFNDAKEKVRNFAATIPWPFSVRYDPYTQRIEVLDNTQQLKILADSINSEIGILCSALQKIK
- Assay Method Text: Cell Based Phenylalanine Flux Assay
- Condition Notes: A375 R408W cells; 24 hrs with compound, then 20 μM sepiapterin and 800 μM 13C9,15N-Phenylalanine for 4 hours; 13C-Tyrosine by LC-MS; average where tested multiple times
Metric: AC50

Please review the entries below; each comes with its answer.
{"columns": ["Molecule", "Measured Target", "AC50"],
 "data": [
  ["O=C(c1oc(-c2ccccn2)nc1C(F)(F)F)N1CCc2[nH]cnc2[C@H]1c1nc2cc(F)ccc2o1 [Example 49]", "human PAH with the R408W mutation (A375 R408W cells) (Homo sapiens, UniProt P00439, R408W)", "≤ 500 nM"],
  ["Cc1cccc2nc([C@H]3c4nc[nH]c4CCN3C(=O)c3nnc(-c4cnn(C)c4)o3)oc12 [Example 566]", "human PAH with the R408W mutation (A375 R408W cells) (Homo sapiens, UniProt P00439, R408W)", "1000 to 5000 nM"],
  ["COc1cccc2oc([C@@H]3c4nc[nH]c4CCN3C(=O)c3nnc(-c4cnn(C)c4)o3)nc12 [Example 626]", "human PAH with the R408W mutation (A375 R408W cells) (Homo sapiens, UniProt P00439, R408W)", "≤ 500 nM"],
  ["Cc1ccc2oc([C@@H]3c4nc[nH]c4CCN3C(=O)c3nnc(-c4cn[nH]c4)o3)nc2c1 [Example 491]", "human PAH with the R408W mutation (A375 R408W cells) (Homo sapiens, UniProt P00439, R408W)", "500 to 1000 nM"],
  ["Cn1nc(C(F)F)cc1C(=O)N1CCc2[nH]cnc2[C@@H]1c1nc2cccc(F)c2o1 [Example 734]", "human PAH with the R408W mutation (A375 R408W cells) (Homo sapiens, UniProt P00439, R408W)", "1000 to 5000 nM"]
]}

For every item below, please supply its AC50.
1. CN1CCN(c2ccc3c(C(=O)N4CCc5[nH]cnc5[C@H]4c4nc5cc(F)ccc5o4)cnn3c2)CC1 [Example 65]
2. O=C(c1ocnc1C(F)(F)F)N1Cc2[nH]cnc2[C@@H]1c1nc2ccccc2o1 [Example 943]

1: 1000 to 5000 nM; 2: 1000 to 5000 nM

# value lookup — system human PAH with the R408W mutation (A375 R408W cells) (Homo sapiens, UniProt P00439, R408W), readout AC50, item O=C(c1oc(C2(O)CC2)nc1C(F)F)N1CCc2[nH]cnc2[C@H]1c1nc2cc(F)ccc2o1 [Example 141] 500 to 1000 nM
